Entry source: patent US20220380471A1

Target: T1, B7H3 (CD276) on MC38-CD276+ cells
T1 construct: whole, on cells; MC38-CD276KO cells served as the negative control; also called MC38-B7H3+
T1 sequence (Q5ZPR3 1-534, species assumed, looked up): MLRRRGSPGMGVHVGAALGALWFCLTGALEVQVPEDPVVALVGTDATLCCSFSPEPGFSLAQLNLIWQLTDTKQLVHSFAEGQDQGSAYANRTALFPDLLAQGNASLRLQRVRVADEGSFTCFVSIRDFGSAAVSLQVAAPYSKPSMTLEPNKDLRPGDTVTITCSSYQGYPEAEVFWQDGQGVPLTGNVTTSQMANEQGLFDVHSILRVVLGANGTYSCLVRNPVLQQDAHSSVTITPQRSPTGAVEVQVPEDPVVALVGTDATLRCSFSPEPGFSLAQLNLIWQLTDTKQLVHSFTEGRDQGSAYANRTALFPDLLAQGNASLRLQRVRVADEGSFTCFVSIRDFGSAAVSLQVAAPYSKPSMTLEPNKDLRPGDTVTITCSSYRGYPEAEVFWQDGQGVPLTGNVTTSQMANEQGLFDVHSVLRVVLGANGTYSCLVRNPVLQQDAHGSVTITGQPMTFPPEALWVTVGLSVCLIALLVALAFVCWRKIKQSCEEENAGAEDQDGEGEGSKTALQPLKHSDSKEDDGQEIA
Experiment: flow cytometry on MC38-CD276+ cells, VHH at 2 ug/ml
Reported endpoint: Positive rates (%)
Numbers only here, please. The scale is %.

Example entries and their recorded answers appear below.
binder="RWC4 (VHH, Camel VHH; tag not described; also called camel antibody RWC4) VHH: EVQLVESGGGSVQAGGSLRLSCVASEDSTSAMCMGWFRQAPGKEREGVACINPTGEVTWYGDSVKGRFTISRDTVKKIVYLQMNSLKPEDTAMYYCAARVTYGGDWSTDTDYEYWGQGTQVTVSS" reported_endpoint="Positive rates" reported_value=84.7
binder="RWD5 (VHH, Camel VHH; tag not described; also called RWDS [sic]; camel antibody RWD5) VHH: AVQLVESGGGLVQPGGSLSVSCAASGFTFSVYWFYWVRQAPRQGLEWVSTIASNGSTYYSDSVKGRFTISRDNAKNTVYLQMNSLKPEDTAVYYCVSDPDYYSDYEREYKFWAQGTQVTVSS" reported_endpoint="Positive rates" reported_value=1.44
binder="RWG8 (VHH, Camel VHH; tag not described; also called camel antibody RWG8) VHH: DVQLVESGGGLVQPGGSLRLSCAASGFTFSRYWMGWFRQAPGKGVEWVSTINSGGGSTYYADSVKGRFTISRDNAKNTLYLQLNNLKTEDTAMYYCAKEQWRTGSRGQGTQVTVSS" reported_endpoint="Positive rates" reported_value=0.31
binder="RWB12 (VHH, Camel VHH; tag not described; also called camel antibody RWB12) VHH: QVQLVESGGGSVQVGGSLRLSCAASGFTYNSYSVGWFRQAPGKEREGVAAINSGGSSTYYAASVKGRFTISRDNAKNTVYLQMNSLKPEDTAMYYCAARSPSPLTFQTRTLREDSYNYWGQGTQVTVSS" reported_endpoint="Positive rates" reported_value=0.18

# evaluate next
Positive rates reading for RWG4 (VHH, Camel VHH; tag not described; also called camel antibody RWG4) VHH: QVQLVQSGGGLVQPGGSLRLSCAASGFTFSVYWFYWVRQAPRQGLEWVSTIASNGSTYYSDSVKGRFTISRDNAKNTVYLQMNSLKPEDTAVYYCVSDPDYYSDYERAYKFWAQGTQVTVSS : 23.4
